Parameter: pKi. Scope: all listed entries.
# STUDY_TARGET: BRD4 (BDII_E352-M457) (Homo sapiens)
# Construct: protocol; made in house
# EXPERIMENTAL_PROTOCOL: TR-FRET bromodomain binding assay, second bromodomain of BRD4
# CONDITION_LABEL: TR-FRET assay protocol G (compound 0.92 μM-15 pM); 30 nM probe
pKi: −log10 of the molar value.
PROPERTY_NAME: pKi

[
  {
    "COMPOUND": "Cn1cc2c3c(c[nH]c3c1=O)C(CCC(=O)N1CCNCC1)N(c1ccc(F)cc1F)c1ccc(CS(C)(=O)=O)cc1-2 (stereo not shown)",
    "PROPERTY_NAME": "pKi",
    "RESULT_VALUE": 8.63
  },
  {
    "COMPOUND": "Cn1cc2c3c(c[nH]c3c1=O)C(CCC(O)CO)N(c1ccc(F)cc1F)c1ccc(CS(C)(=O)=O)cc1-2 (stereo not shown)",
    "PROPERTY_NAME": "pKi",
    "RESULT_VALUE": 8.65
  },
  {
    "COMPOUND": "Cn1cc2c3c(c[nH]c3c1=O)CN(c1ccc(C#N)cc1)c1ccc(CS(C)(=O)=O)cc1-2",
    "PROPERTY_NAME": "pKi",
    "RESULT_VALUE": 8.97
  },
  {
    "COMPOUND": "Cn1cc2c3c(c[nH]c3c1=O)CN(CCc1ccccc1)c1c(F)cc(F)cc1-2",
    "PROPERTY_NAME": "pKi",
    "RESULT_VALUE": 7.80
  }
]

---

# STUDY_TARGET: BRD4 (BDI_K57-E168) (Homo sapiens, UniProt O60885)
# Construct: BD1: amino acids K57-E168; made in house
# EXPERIMENTAL_PROTOCOL: TR-FRET bromodomain binding assay, first bromodomain of BRD4
# CONDITION_LABEL: TR-FRET assay protocol G (compound 0.92 μM-15 pM); 100 nM probe
pKi: −log10 of the molar value.
Returns condition met if the recorded pKi is greater than or equal to 8, and condition not met otherwise.

[
  {
    "MOLECULE": "COC(=O)CCC1c2c[nH]c3c(=O)n(C)cc(c23)-c2cc(CS(C)(=O)=O)ccc2N1c1ccc(F)cc1F (stereo not shown) [Example 268]",
    "LABEL_VALUE": "condition not met"
  },
  {
    "MOLECULE": "Cn1cc2c3c(c[nH]c3c1=O)C(CN1C(=O)c3ccccc3C1=O)N(c1ccc(F)cc1F)c1ccc(CS(C)(=O)=O)cc1-2 (stereo not shown) [Example 204]",
    "LABEL_VALUE": "condition not met"
  },
  {
    "MOLECULE": "Cn1cc2c3c(c(C(N)=O)[nH]c3c1=O)CN(c1ccc(F)cc1F)c1ccc(CS(C)(=O)=O)cc1-2 [Example 209]",
    "LABEL_VALUE": "condition met"
  },
  {
    "MOLECULE": "Cn1cc(-c2[nH]c3c(=O)n(C)cc4c3c2CN(c2ccc(F)cc2)c2ccc(CS(C)(=O)=O)cc2-4)cn1 [Example 276]",
    "LABEL_VALUE": "condition met"
  },
  {
    "MOLECULE": "COC(=O)CC[C@H]1c2c[nH]c3c(=O)n(C)cc(c23)-c2cc(CS(C)(=O)=O)ccc2N1c1ccc(F)cc1F (single isomer, unassigned) [Example 269]",
    "LABEL_VALUE": "condition met"
  },
  {
    "MOLECULE": "CCCCCOC(=O)N1Cc2c[nH]c3c(=O)n(C)cc(c23)-c2cc(CS(C)(=O)=O)ccc21 [Example 88]",
    "LABEL_VALUE": "condition met"
  },
  {
    "MOLECULE": "CCCNC(=O)N1Cc2c[nH]c3c(=O)n(C)cc(c23)-c2cc(CS(C)(=O)=O)ccc21 [Example 64]",
    "LABEL_VALUE": "condition met"
  },
  {
    "MOLECULE": "Cn1cc2c3c(c[nH]c3c1=O)CN(CCCc1ccccc1)c1c(F)cc(F)cc1-2 [Example 51]",
    "LABEL_VALUE": "condition met"
  },
  {
    "MOLECULE": "COCCC(=O)N1Cc2c[nH]c3c(=O)n(C)cc(c23)-c2cc(CS(C)(=O)=O)ccc21 [Example 101]",
    "LABEL_VALUE": "condition met"
  },
  {
    "MOLECULE": "Cn1cc2c3c(c[nH]c3c1=O)CN(c1ccc(F)cc1F)c1c(C(N)=O)cc(CS(C)(=O)=O)cc1-2 [Example 240]",
    "LABEL_VALUE": "condition met"
  },
  {
    "MOLECULE": "[2H]C1([2H])c2c[nH]c3c(=O)n(C)cc(c23)-c2cc(CS(C)(=O)=O)ccc2N1c1ccc(F)cc1F [Example 218]",
    "LABEL_VALUE": "condition met"
  },
  {
    "MOLECULE": "Cn1cc2c3c(c[nH]c3c1=O)CN(c1ccc(F)cc1)c1ccc(CS(C)(=O)=O)cc1-2 [Example 9]",
    "LABEL_VALUE": "condition met"
  },
  {
    "MOLECULE": "COc1ccc(C(=O)N2Cc3c[nH]c4c(=O)n(C)cc(c34)-c3cc(CS(C)(=O)=O)ccc32)cc1 [Example 110]",
    "LABEL_VALUE": "condition not met"
  },
  {
    "MOLECULE": "Cn1cc2c3c(c[nH]c3c1=O)CN(C1CCC(N)CC1)c1ccc(CS(C)(=O)=O)cc1-2 (mixture of isomers) [Example 212]",
    "LABEL_VALUE": "condition met"
  },
  {
    "MOLECULE": "CC(C1CCOCC1)N1Cc2c[nH]c3c(=O)n(C)cc(c23)-c2cc(CS(C)(=O)=O)ccc21 (racemic) [Example 188]",
    "LABEL_VALUE": "condition met"
  },
  {
    "MOLECULE": "COC(=O)NC1CCC(N2Cc3c[nH]c4c(=O)n(C)cc(c34)-c3cc(CS(C)(=O)=O)ccc32)CC1 (stereo not shown) [Example 224]",
    "LABEL_VALUE": "condition met"
  },
  {
    "MOLECULE": "Cn1cc2c3c(c[nH]c3c1=O)CN(CC(C)(C)CN1CCOCC1)c1ccc(CS(C)(=O)=O)cc1-2 [Example 257]",
    "LABEL_VALUE": "condition met"
  },
  {
    "MOLECULE": "Cn1cc2c3c(c[nH]c3c1=O)CN(Cc1ccccc1)c1ccc(CS(C)(=O)=O)cc1-2 [Example 247]",
    "LABEL_VALUE": "condition met"
  },
  {
    "MOLECULE": "Cn1cc2c3c(c[nH]c3c1=O)C(c1cccc(-c3ccccn3)c1)N(c1ccc(F)cc1F)c1ccc(CS(C)(=O)=O)cc1-2 (racemic) [Example 236]",
    "LABEL_VALUE": "condition not met"
  },
  {
    "MOLECULE": "Cn1cc2c3c(c[nH]c3c1=O)CN(C(=O)c1ccccc1)c1ccc(CS(C)(=O)=O)cc1-2 [Example 109]",
    "LABEL_VALUE": "condition not met"
  },
  {
    "MOLECULE": "[2H]C1([2H])c2c[nH]c3c(=O)n(C)cc(c23)-c2cc(CS(C)(=O)=O)ccc2N1c1ccc(F)cc1 [Example 31]",
    "LABEL_VALUE": "condition met"
  }
]
